Test: Drug uptake in human CFSE-stained HN-121 cells assessed as increase in drug retention at 1.6 uM in medium with 10% FBS followed by 48 hrs chase period by inverted fluorescence microscopic analysis
Format: ADME, cell-based
Settings: hn-121, 48 h

>  <compound>
CCCCCCOC(C)c1c(C)c2cc3nc(c(CC(=O)OC)c4[nH]c(cc5nc(cc1[nH]2)C(C)=C5CC)c(C)c4C(=O)NCCCOCCOCCOCCCNC(=O)Cc1cccc(C#Cc2cccc(Nc4ncnc5cc(OCCOC)c(OCCOC)cc45)c2)c1)[C@@H](CCC(=O)OC)[C@@H]3C (stereo partly drawn)

>  <Drug uptake>
Active

$$$$
>  <compound>
C=Cc1c(C)c2cc3nc(c(CC(=O)OC)c4[nH]c(cc5nc(cc1[nH]2)C(C)=C5CC)c(C)c4C(=O)NCCNC(=O)COCC(=O)NCCCOCCOCCOCCCNC(=O)Cc1cccc(C#Cc2cccc(Nc4ncnc5cc(OCCOC)c(OCCOC)cc45)c2)c1)[C@@H](CCC(=O)OC)[C@@H]3C

>  <Drug uptake>
Not Active

$$$$
>  <compound>
CCCCCCOC(C)c1c(C)c2cc3nc(c4c5[nH]c(cc6nc(cc1[nH]2)C(C)=C6CC)c(C)c5C(=O)C4)[C@@H](CCC(=O)NCCCCn1cc(-c2cccc(Nc4ncnc5cc(OCCOC)c(OCCOC)cc45)c2)nn1)[C@@H]3C (stereo partly drawn)

>  <Drug uptake>
Active

$$$$
>  <compound>
C=Cc1c(C)/c2[nH]/c1=C\C1=NC(=C\C3=C(C)C4C(=O)N(Cc5cccc(C#Cc6cccc(Nc7ncnc8cc(OCCOC)c(OCCOC)cc78)c6)c5)C(=O)/C(=C5N=C(\C=2)[C@@H](C)[C@@H]/5CCC(=O)OC)C4N3)/C(CC)=C1C (stereo partly drawn)

>  <Drug uptake>
Not Active

$$$$
>  <compound>
CCC1=C(C)c2cc3[nH]c(cc4nc(c5c6[nH]c(cc1n2)c(C)c6C(=O)C5)[C@@H](CCC(=O)OC)[C@@H]4C)c(C)c3C(C)OCc1cccc(C#Cc2cccc(Nc3ncnc4cc(OCCOC)c(OCCOC)cc34)c2)c1 (stereo partly drawn)

>  <Drug uptake>
Active

$$$$
>  <compound>
CCC1=C(C)c2cc3[nH]c(cc4nc(c5c6[nH]c(cc1n2)c(C)c6C(=O)C5)[C@@H](CCC(=O)OC)[C@@H]4C)c(C)c3C(C)OCc1ccc(C#Cc2cccc(Nc3ncnc4cc(OCCOC)c(OCCOC)cc34)c2)cc1 (stereo partly drawn)

>  <Drug uptake>
Active

$$$$
>  <compound>
CCC1=C(C)c2cc3[nH]c(cc4nc(c5c6[nH]c(cc1n2)c(C)c6C(=O)C5)[C@@H](CCC(=O)OC)[C@@H]4C)c(C)c3COCc1cccc(C#Cc2cccc(Nc3ncnc4cc(OCCOC)c(OCCOC)cc34)c2)c1

>  <Drug uptake>
Not Active

$$$$
>  <compound>
CCC1=C(C)c2cc3[nH]c(c(C)c3CC)c(-c3ccc(C(=O)NCc4ccc(I)cc4)cc3)c3nc(c4c5[nH]c(cc1n2)c(C)c5C(=O)C4)[C@@H](CCC(=O)OC)[C@@H]3C

>  <Drug uptake>
Not Active

$$$$

###

Test: Drug uptake in human CFSE-stained HN-121 cells assessed as increase in drug retention at 1.6 uM in medium with 10% FBS followed by 48 hrs chase period by inverted fluorescence microscopic analysis
Type: ADME, cell-based
Conditions: hn-121, 48 h
assay-readout: Drug uptake

>  <compound>
CCC1c2cc3[nH]c4c(c5nc(cc6[nH]c(cc(n2)C1C)c(C(C)OCc1cccc(C#Cc2cccc(Nc7ncnc8cc(OCCOC)c(OCCOC)cc78)c2)c1)c6C)[C@@H](C)[C@@H]5CCC(=O)OC)CC(=O)c4c3C (stereo not given in full)

>  <assay-readout>
Drug uptake

>  <assay-result>
Not Active

$$$$
>  <compound>
CCC1=C(C)c2cc3[nH]c(c(C)c3CC)c(-c3ccc(C(=O)NCc4ccc(C#Cc5cccc(Nc6ncnc7cc(OCCOC)c(OCCOC)cc67)c5)cc4)cc3)c3nc(c4c5[nH]c(cc1n2)c(C)c5C(=O)C4)[C@@H](CCC(=O)OC)[C@@H]3C

>  <assay-readout>
Drug uptake

>  <assay-result>
Not Active

$$$$
>  <compound>
CCC1c2cc3[nH]c4c(c5nc(cc6[nH]c(cc(n2)C1C)c(C(C)OCc1cccc(C#Cc2cccc(Nc7ncnc8cc(OCCOC)c(OCCOC)cc78)c2)c1)c6C)[C@@H](C)[C@@H]5CCC(=O)O)CC(=O)c4c3C (stereo not given in full)

>  <assay-readout>
Drug uptake

>  <assay-result>
Not Active

$$$$
>  <compound>
CCCCCCOC(C)c1c(C)c2cc3nc(c(CC(=O)OC)c4[nH]c(cc5nc(cc1[nH]2)C(C)=C5CC)c(C)c4C(=O)NCc1cccc(I)c1)[C@@H](CCC(=O)OC)[C@@H]3C (stereo not given in full)

>  <assay-readout>
Drug uptake

>  <assay-result>
Not Active

$$$$
